B1: KRT71 (parent)
chain: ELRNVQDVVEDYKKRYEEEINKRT

Variants of: B1
ASSAY PROTOCOL: protein stability index of a GFP-peptide fusion (GPS, HEK-293T) (PSI 1-6); higher = more stable;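 also: lentivirally expressed fusions sorted by FACS into six bins by GFP to DsRed ratio, PSI derived from sequencing read proportions per bin multiplied by bin number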
CONDITION SET: c terminus: a fixed tail appended
Reported protein stability index values are given for each entry in this list.
Please give only the number in your answer, with no unit.

Examples with their reported protein stability index follow.
- VARIANT CODE: "E19F"
  READING: 3.36
- VARIANT CODE: "K14Y"
  READING: 3.47
- VARIANT CODE: "E18N"
  READING: 3.31
- VARIANT CODE: "R23E"
  READING: 4.63
- VARIANT CODE: "R23G"
  READING: 4.1
- VARIANT CODE: "Y12Q"
  READING: 4.12
- VARIANT CODE: "D7Q"
  READING: 4.58
- VARIANT CODE: "E10M"
  READING: 3.57

What value of measured protein stability index is listed for K14V ?
4.45

What value of measured protein stability index is listed for N21D ?
3.8

What value of measured protein stability index is listed for V9R ?
2.95

What value of measured protein stability index is listed for V5P ?
5.56

What value of measured protein stability index is listed for D11C ?
3.98

What value of measured protein stability index is listed for T24Q ?
4.56

What value of measured protein stability index is listed for D11I ?
2.82

What value of measured protein stability index is listed for N4F ?
3.11

What value of measured protein stability index is listed for V9G ?
4.2

What value of measured protein stability index is listed for T24Y ?
3.18

What value of measured protein stability index is listed for V5E ?
4.43

What value of measured protein stability index is listed for N4R ?
4.48

What value of measured protein stability index is listed for D7P ?
3.17

What value of measured protein stability index is listed for N21H ?
4.26

What value of measured protein stability index is listed for I20P ?
3.71
